Listed below: inhibition of SARS-CoV-2 cytopathic effect values for each entry.
Test system: Vero E6 infected with SARS-CoV-2
measurement description: inhibition of SARS-CoV-2 cytopathic effect; higher = more antiviral protection, active = above 15
condition set: 100 nM; 48 h
Give a bare numeral; the unit % is implied.

// below: answered compounds
Cn1ncc(Cl)c1-c1cc(C(=O)N[C@H](CN)Cc2ccc(F)c(F)c2)oc1Cl [uprosertib]; -1.46
CC(=O)c1c(C)c2cnc(Nc3ccc(N4CCNCC4)cn3)nc2n(C2CCCC2)c1=O [palbociclib]; -4.3
COc1cc2c(cc1OC)[C@@H]1Cc3ccc(OC)c(OC)c3CN1CC2 [rotundine]; -1.22

Prompt: Reported inhibition of SARS-CoV-2 cytopathic effect, compound COC(c1ccccc1)(c1ccccc1)[C@H](Oc1nc(C)cc(C)n1)C(=O)O [ambrisentan] : ____
Completion: -1.38

Prompt: Reported inhibition of SARS-CoV-2 cytopathic effect, compound Oc1ccc(C2CNCCc3c2cc(O)c(O)c3Cl)cc1 (stereo not drawn) [fenoldopam] : ____
Completion: 4.35

Prompt: Reported inhibition of SARS-CoV-2 cytopathic effect, compound CCc1cn([C@H]2C[C@H](O)[C@@H](CO)O2)c(=O)[nH]c1=O [edoxudine] : ____
Completion: 0.77
